Values compiled from PubChem BioAssay AID1159580.

# Measurement Description: chemical genetic growth profiling, strain panel (AID 1159580);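 note: tested at 20 µM; growth read once vehicle control cultures reached saturation at 30 °C; 1 = growth at the plate median or of vehicle wells; lower values mean less growth of the strain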
# Experimental Parameters: S. cerevisiae deletion strains, growth OD, locus YMR263W, strain SAP30, active compounds read low
Out of some 5,500 compounds screened, about 2,000 (36%) were called active. Inconclusive results (about 18%) are left out. Some of the results follow.

Compound	normalized growth
NC(=O)c1ccc[n+]([C@@H]2O[C@H](COP(=O)([O-])OP(=O)(O)OC[C@H]3O[C@@H](n4cnc5c(N)ncnc54)[C@H](O)[C@@H]3O)[C@@H](O)[C@H]2O)c1	1
ClC1=C(Cl)C2(Cl)C3C(Cl)C=CC3C1(Cl)C2(Cl)Cl (centres undefined)	0.999
Clc1cccc(Cl)c1CSC1=NCCCN1C1CCCCC1	1.01
O=C(O)C1(O)C[C@@H](O)C(O)[C@H](O)C1 (some centres undefined)	1.01

* * *

# Measurement Description: chemical genetic growth profiling, strain panel (AID 1159580);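 note: tested at 20 µM; growth read once vehicle control cultures reached saturation at 30 °C; 1 = growth at the plate median or of vehicle wells; lower values mean less growth of the strain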
# Experimental Parameters: S. cerevisiae deletion strains, growth OD, locus YAL026C, strain drs2
The whole screen tested about 5,500 compounds, of which about 2,000 (36%) were called active. Not shown: some 18% with an inconclusive outcome. No stated cut-off is given here; in the data, active means normalized growth mostly below about 0.91 (no sharp cut-off); inconclusive means no clear call, values can overlap the other calls; inactive means mostly above about 0.92. The list shows a part of the results.
Classes used: True = active, False = inactive

Molecule	Label
CCCCNc1cc(C(=O)O)cc(S(N)(=O)=O)c1Oc1ccccc1	False
COc1cc(NC(C)CCCN)c2ncccc2c1 (configuration not stated)	False
COc1cc(O)c(C(=O)/C=C/c2ccccc2)c(OC)c1	False
N=c1ccn2c(n1)O[C@@H]1C2O[C@H](CO)[C@H]1O (some centres not stated)	False
CCC(=O)O[C@H]1[C@H](O[C@@H]2[C@@H](C)[C@H](O[C@H]3C[C@@](C)(OC)[C@@H](O)[C@H](C)O3)[C@@H](C)C(=O)O[C@H](CC)[C@@](C)(O)[C@H](O)[C@@H](C)C(=O)[C@H](C)C[C@@]2(C)O)O[C@H](C)C[C@@H]1N(C)C	False
COc1cc(O)c(C(=O)/C=C/c2ccc(O)c(OC)c2)c(OC)c1	True
O=C(O)C1(O)C[C@@H](O)C(O)[C@H](O)C1 (some centres not stated)	False
CC1(C)OC(=O)NC1=O	False
CCOC(=O)c1c(C)c(Cl)c(O)c(Cl)c1O	True
CCCCCCNC(=O)n1cc(F)c(=O)[nH]c1=O	True
COc1cc(O)c(C(=O)/C=C/c2ccc(OC)c(O)c2)c(OC)c1	True
CCN(CCO)CCCC(C)Nc1ccnc2cc(Cl)ccc12 (configuration not stated)	False
CCN(CC)CCCC(C)Nc1c2ccc(Cl)cc2nc2ccc(OC)cc12 (configuration not stated)	False
CCN(CC)CCCC(C)Nc1ccnc2cc(Cl)ccc12 (configuration not stated)	False
Cc1cc(O)c(C)c(O)c1C(=O)O	False
CC(N)CCCC(C)(C)O (configuration not stated)	False
CCOC(=O)CCC(=O)O[C@H]1[C@H](O[C@@H]2[C@@H](C)[C@H](O[C@H]3C[C@@](C)(OC)[C@@H](O)[C@H](C)O3)[C@@H](C)C(=O)O[C@H](CC)[C@@](C)(O)[C@H](O)[C@@H](C)C(=O)[C@H](C)C[C@@]2(C)O)O[C@H](C)C[C@@H]1N(C)C	False

* * *

# Measurement Description: chemical genetic growth profiling, strain panel (AID 1159580);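 note: tested at 20 µM; growth read once vehicle control cultures reached saturation at 30 °C; 1 = growth at the plate median or of vehicle wells; lower values mean less growth of the strain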
# Experimental Parameters: S. cerevisiae deletion strains, growth OD, locus YBR229C, strain ROT2, active compounds read low
Screen size: about 5,500 compounds; about 2,000 (36%) were called active. Roughly 18% stayed inconclusive and do not appear here. This is one part of the list.
Measured Quantity: normalized growth

> print(dat)
                                    molecule  observed.result
 1  CC(C)(C)c1ccc(-c2nc(-c3cc(C(C)(C)C)c(O)c(C(C)(C)C)c3)cs2)cc1                1
 2              C[N+](C)(C)CCCCCC[N+](C)(C)C            0.995
 3  CCS(=O)CCSP(=O)(OC)OC (configuration not stated)             1.02
 4     Cc1ccc(-c2csc(-c3ccc(Cl)cc3)n2)c(C)c1            0.978
 5              CN[C@@H](C)[C@@H](O)c1ccccc1            0.949
 6  CC(CCc1ccccc1)NC(C)C(O)c1ccc(O)cc1 (configuration not stated)            0.955
 7  CC(C)(C)c1cc(-c2csc(-c3ccc(Cl)cc3)n2)cc(C(C)(C)C)c1O             1.02
 8  CCCCCCCCNC(C)C(O)c1ccc(SC(C)C)cc1 (configuration not stated)           0.0441
 9  COc1ccc(S(=O)(=O)Nc2ccccc2Oc2ccc(Cl)cc2Cl)cc1OC             1.01
10  Cc1ccc(C)c(NC(=S)N(CCc2ccccc2)CCc2ccccn2)c1            0.983
11               CCCCCCCCCCCCCCCC[N+](C)(C)C           0.0267
12       CN(C)CC/C=C1\c2ccccc2Sc2ccc(Cl)cc21             1.01

* * *

# Measurement Description: chemical genetic growth profiling, strain panel (AID 1159580);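 note: tested at 20 µM; growth read once vehicle control cultures reached saturation at 30 °C; 1 = growth at the plate median or of vehicle wells; lower values mean less growth of the strain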
# Experimental Parameters: S. cerevisiae deletion strains, growth OD, locus YJR043C, strain POL32, active compounds read low
About 2,000 (36%) of roughly 5,500 compounds were called active. Inconclusive results (about 18%) are left out. The list shows a part of the results.
Measured Quantity: normalized growth

> print(dat)
                                    molecule  measured.quantity  observed.result
 1                    O=C(O)c1cc2ccccc2[nH]1  normalized growth             0.99
 2  CCCCCCCCCCCCCCCC(=O)OC/C=C(C)/C=C/C=C(C)/C=C/C1=C(C)CCCC1(C)C  normalized growth            0.995
 3  CC1CC2C3CC(F)C4=CC(=O)C=CC4(C)C3(F)C(O)CC2(C)C1(O)C(=O)CO (centres undefined)  normalized growth             1.08
 4    NCC1CCC(C(=O)O)CC1 (centres undefined)  normalized growth                1
 5                                  NCCSSCCN  normalized growth             1.03
 6   COc1ccc(OC)c(S(=O)(=O)Oc2ccc(C#N)cc2)c1  normalized growth            0.981
 7         Clc1cccc(Cl)c1CSC1=NCCCN1C1CCCCC1  normalized growth                1
 8     O=C(CSc1nnnn1-c1ccccc1)NC1Cc2ccccc2C1  normalized growth             1.04
 9    c1cncc(C2CCCCN2)c1 (centres undefined)  normalized growth             1.02
10              CCOC(=O)c1c(C)cc(O)c(C=O)c1O  normalized growth            0.209
11  CCOC(=O)C(=O)C1(C(=O)OCC)Oc2cc(OC)cc(OC)c2C(=O)C1c1ccccc1 (centres undefined)  normalized growth            0.998
12     CCCS(=O)(=O)c1c(C)c(C)n(Cc2ccccc2)c1N  normalized growth            0.997
13                CCOC(=O)c1c(C)cc(O)c(C)c1O  normalized growth            0.949
14                Cc1cc(O)c(C=O)c(O)c1C(=O)O  normalized growth             1.02
15  O=C1c2cccc3c([N+](=O)[O-])ccc(c23)C(=O)N1Cc1ccco1  normalized growth            0.791
16            COc1cc(/C=C2\NC(=O)NC2=O)ccc1O  normalized growth            0.997
17  CC(Oc1ccccc1)C(=O)N[C@@H]1C(=O)N2[C@@H]1SC(C)(C)[C@@H]2C(=O)O (some centres undefined)  normalized growth             1.01
18  Cc1cccc(Cn2c(C)c(C)c(S(=O)(=O)c3ccccc3)c2N)c1C  normalized growth                1
19          COC(=O)c1sccc1OC(=O)c1c(F)cccc1F  normalized growth            0.981
20  CC1=C(/C=C/C(C)=C/C=C/C(C)=C/C=C/C=C(C)/C=C/C=C(C)/C=C/C23OC2(C)CC(O)CC3(C)C)C(C)(C)CC(O)C1 (centres undefined)  normalized growth            0.999
21                    CSc1nnnn1-c1c(C)cccc1C  normalized growth            0.982
22  CC(=O)OC(C)(C)[C@@H]1Cc2cc3ccc(=O)oc3cc2O1  normalized growth            0.991
23  O=C(O)c1cc2ccccc2c(Cc2c(O)c(C(=O)O)cc3ccccc23)c1O  normalized growth             1.01
24                               Ic1ccc(I)s1  normalized growth             1.04
